test system: tobacco leaves; assay: Effect of peptide infiltration on tobacco leaves (phytotoxicity); assay type: in vivo; details: 100 μL infiltrated into mesophyll, lesion diameter 48 h after infiltration, at least three leaves; ± confidence interval (α = 0.05)
The reader will find reported Size of the lesions in infiltrated tobacco leaves at 150 μM values listed item by item below.
Your answer is read as cm, so omit the unit and give the number.

substance	measurement
Ac-KKLfKKILKK(COC3H7)L-RINSAKDDAAGLQIA-OH [BP475-flg15, peptide conjugate, lipopeptide BP475 at N-terminus, flg15 at C-terminus]	1.20
H-FKLFKKILKVLKKVVFWVKFK-NH2 [BP13-KSLW]	1.00
FKLFKKILKVL-KKLfKKILKYL-NH2 [BP13-BP143, peptide conjugate, BP13 at N-terminus, BP143 at C-terminus]	0.88
FKLFKKILKVL-NH2 [BP13, reference compound]	0.48
KKLFKKILKYL-RINSAKDDAAGLQIA-OH [BP100-flg15, peptide conjugate, BP100 at N-terminus, flg15 at C-terminus]	0.28
H-RINSAKDDAAGLQIAKKLFKKILKKL-NH2 [flg15-BP16]	0.49

Now look at this one.
Value sought: Size of the lesions in infiltrated tobacco leaves at 150 μM, system tobacco leaves, item RINSAKDDAAGLQIA-OH [flg15, plant defense elicitor peptide, 15 amino acids of the N-terminal conserved domain of bacterial flagellin; monomer] . Result: 0

* * *

tested on: Xanthomonas arboricola pv. pruni CFBP5563; assay: In vitro growth inhibition (MIC); type: cell-based; conditions: TSB, 25°C, 48 h, OD 600 nm (Bioscreen C), three replicates, experiment repeated twice; MIC given as range
measure.name: MIC, Xap

Summary for this substance, FKLFKKILKVL-KKLfKKILKYL-NH2 [BP13-BP143, peptide conjugate, BP13 at N-terminus, BP143 at C-terminus] : MIC, Xap is 6.2 to 12.5 µM

Summary for this substance, FKLFKKILKVL-NH2 [BP13, reference compound] : MIC, Xap is 6.2 to 12.5 µM

Summary for this substance, KKLFKKILKYL-RINSAKDDAAGLQIA-OH [BP100-flg15, peptide conjugate, BP100 at N-terminus, flg15 at C-terminus] : MIC, Xap is 1.6 to 3.1 µM

* * *

tested on: tobacco leaves; assay: Effect of peptide infiltration on tobacco leaves (phytotoxicity); type: in vivo; conditions: 100 μL infiltrated into mesophyll, lesion diameter 48 h after infiltration, at least three leaves; ± confidence interval (α = 0.05)
measure.name: Size of the lesions in infiltrated tobacco leaves at 50 μM (cm)
Your answer is read as cm, so omit the unit and give the number.

Here are 2 substances together with their reported answers.
substance	measurement
H-FKLFKKILKVLKKVVFWVKFK-NH2 [BP13-KSLW]	0.56
FKLFKKILKVL-KKLFKKILKYL-NH2 [BP13-BP100, peptide conjugate, BP13 at N-terminus, BP100 at C-terminus]	0.60

Now look at this one.
Summary for this substance, KKLFKKILKKL-FKLFKKILKVL-NH2 [BP16-BP13, peptide conjugate, BP16 at N-terminus, BP13 at C-terminus] : Size of the lesions in infiltrated tobacco leaves at 50 μM is 0.68

* * *

system: tobacco leaves; assay: Effect of peptide infiltration on tobacco leaves (phytotoxicity); assay type: in vivo; conditions: 100 μL infiltrated into mesophyll, lesion diameter 48 h after infiltration, at least three leaves; ± confidence interval (α = 0.05)
The reader will find reported Size of the lesions in infiltrated tobacco leaves at 250 μM values listed item by item below.
Your answer is read as cm, so omit the unit and give the number.

substance	measurement
H-RINSAKDDAAGLQIAKKLFKKILKKL-NH2 [flg15-BP16]	0.42
H-FKLFKKILKVLKKVVFWVKFK-NH2 [BP13-KSLW]	0.92
FKLFKKILKVL-NH2 [BP13, reference compound]	0.96

Summary for this substance, KKLFKKILKYL-RINSAKDDAAGLQIA-OH [BP100-flg15, peptide conjugate, BP100 at N-terminus, flg15 at C-terminus] : Size of the lesions in infiltrated tobacco leaves at 250 μM is 0.36

* * *

system: Erwinia amylovora PMV6076; assay: In vitro growth inhibition (MIC); type: cell-based; conditions: TSB, 25°C, 48 h, OD 600 nm (Bioscreen C), three replicates, experiment repeated twice; MIC = lowest concentration with no growth, given as range
No end group written: not given here.
The reader will find reported MIC, Ea values listed item by item below.

Here are 8 substances together with their reported answers.
substance	test.system	MIC, Ea
H-FKLFKKILKVLKKVVFWVKFK-NH2 [BP13-KSLW]	Erwinia amylovora PMV6076	> 50 µM
H-YGIHTHKKVVFWVKFK-NH2 [PIP1-KSLW]	Erwinia amylovora PMV6076	12.5 to 25 µM
VWNQPVRGFKVYE-OH [Pep13, pathogen-associated molecular pattern (PAMP) from Phytophthora sojae; plant defense elicitor monomer]	Erwinia amylovora PMV6076	> 50 µM
H-KKVVFWVKFKYGIHTH-NH2 [KSLW-PIP1]	Erwinia amylovora PMV6076	> 50 µM
RINSAKDDAAGLQIA-OH [flg15, plant defense elicitor peptide, 15 amino acids of the N-terminal conserved domain of bacterial flagellin; monomer]	Erwinia amylovora PMV6076	> 100 µM
Ac-KKLfKKILKK(COC3H7)L-RINSAKDDAAGLQIA-OH [BP475-flg15, peptide conjugate, lipopeptide BP475 at N-terminus, flg15 at C-terminus]	Erwinia amylovora PMV6076	12.5 to 25 µM
YGIHTH-NH2 [PIP1, plant defense elicitor peptide identified through combinatorial chemistry; monomer]	Erwinia amylovora PMV6076	> 50 µM
KKVVFWVKFK-RINSAKDDAAGLQIA-OH [KSLW-flg15, peptide conjugate, KSL-W at N-terminus, flg15 at C-terminus]	Erwinia amylovora PMV6076	> 50 µM

Summary for this substance, KKLFKKILKKL-RINSAKDDAAGLQIA-OH [BP16-flg15, peptide conjugate, BP16 at N-terminus, flg15 at C-terminus] : MIC, Ea is > 50 µM

Summary for this substance, VWNQPVRGFKVYEKKLFKKILKKL-NH2 [Pep13-BP16] : MIC, Ea is 6.2 to 12.5 µM

* * *

The reader will find reported MIC, Xap values listed item by item below.
tested on: Xanthomonas arboricola pv. pruni CFBP5563; experiment: In vitro growth inhibition (MIC); assay type: cell-based; details: TSB, 25°C, 48 h, OD 600 nm (Bioscreen C), three replicates, experiment repeated twice; MIC given as range
No end group written: not given here.

substance	MIC, Xap
H-FKLFKKILKVLKKVVFWVKFK-NH2 [BP13-KSLW]	1.6 to 3.1 µM
Ac-KKLfKKILKK(COC3H7)L-RINSAKDDAAGLQIA-OH [BP475-flg15, peptide conjugate, lipopeptide BP475 at N-terminus, flg15 at C-terminus]	1.6 to 3.1 µM
KKLFKKILKKL-FKLFKKILKVL-NH2 [BP16-BP13, peptide conjugate, BP16 at N-terminus, BP13 at C-terminus]	6.2 to 12.5 µM
YGIHTH-NH2 [PIP1, plant defense elicitor peptide identified through combinatorial chemistry; monomer]	> 50 µM
KKLFKKILKYLVWNQPVRGFKVYE [BP100-Pep13]	1.6 to 3.1 µM

Summary for this substance, Ac-KKLFKKIK(COC3H7)KYL-RINSAKDDAAGLQIA-OH [BP387-flg15, peptide conjugate, lipopeptide BP387 at N-terminus, flg15 at C-terminus] : MIC, Xap is 1.6 to 3.1 µM

Summary for this substance, RINSAKDDAAGLQIA-KKLFKKILKYL-NH2 [flg15-BP100, peptide conjugate, flg15 at N-terminus, BP100 at C-terminus] : MIC, Xap is 0.8 to 1.6 µM

Summary for this substance, RINSAKDDAAGLQIA-OH [flg15, plant defense elicitor peptide, 15 amino acids of the N-terminal conserved domain of bacterial flagellin; monomer] : MIC, Xap is > 100 µM

* * *

tested on: Erwinia amylovora PMV6076; experiment: In vitro growth inhibition (MIC); assay type: cell-based; conditions: TSB, 25°C, 48 h, OD 600 nm (Bioscreen C), three replicates, experiment repeated twice; MIC = lowest concentration with no growth, given as range
The reader will find reported MIC, Ea values listed item by item below.

substance	MIC, Ea
FKLFKKILKVL-NH2 [BP13, reference compound]	25 to 50 µM
KKLfKKILKYL-FKLFKKILKVL-NH2 [BP143-BP13, peptide conjugate, BP143 at N-terminus, BP13 at C-terminus]	> 50 µM

Now look at this one.
Summary for this substance, KKLFKKILKYL-FKLFKKILKVL-NH2 [BP100-BP13, peptide conjugate, BP100 at N-terminus, BP13 at C-terminus] : MIC, Ea is > 50 µM
